Measured K obs / 1 of individual entries
# EXPERIMENTAL SYSTEM: Calpain-1 catalytic subunit (Homo sapiens) (UniProt P07384)
# Sequence (whole entry): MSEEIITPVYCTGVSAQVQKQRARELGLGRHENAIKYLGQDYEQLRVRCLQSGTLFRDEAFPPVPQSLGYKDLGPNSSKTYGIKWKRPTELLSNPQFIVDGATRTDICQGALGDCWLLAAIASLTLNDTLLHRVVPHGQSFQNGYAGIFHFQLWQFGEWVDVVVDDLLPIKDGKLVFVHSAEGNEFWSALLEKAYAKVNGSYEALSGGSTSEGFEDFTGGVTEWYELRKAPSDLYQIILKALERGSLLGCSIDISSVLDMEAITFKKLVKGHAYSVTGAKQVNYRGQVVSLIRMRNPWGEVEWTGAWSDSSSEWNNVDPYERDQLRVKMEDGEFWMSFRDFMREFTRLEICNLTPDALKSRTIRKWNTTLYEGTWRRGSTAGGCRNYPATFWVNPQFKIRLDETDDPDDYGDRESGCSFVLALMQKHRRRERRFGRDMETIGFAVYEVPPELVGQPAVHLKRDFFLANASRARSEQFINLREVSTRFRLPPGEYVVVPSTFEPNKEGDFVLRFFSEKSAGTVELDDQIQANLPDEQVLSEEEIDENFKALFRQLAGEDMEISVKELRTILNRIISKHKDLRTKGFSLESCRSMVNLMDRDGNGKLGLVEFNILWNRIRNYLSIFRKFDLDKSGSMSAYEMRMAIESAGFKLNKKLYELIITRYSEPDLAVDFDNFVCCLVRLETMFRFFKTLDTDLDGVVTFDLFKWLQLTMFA
# PROCEDURE SUMMARY: Second order rate constant for inactivation of recombinant human Calpain 1 was reported
Note to self: number, then unit, no commentary.

Here are 2 compounds together with their reported answers.
> print(dat)
                                   compound         result
1  CCC(NC(=O)C(CC(C)C)NC(=O)OCc1ccccc1)C(=O)COn1nnc2ccccc21 (stereo not drawn)  63000 M⁻¹ s⁻¹
2  CC(C)CC(NC(=O)OCc1ccccc1)C(=O)NC(Cc1ccccc1)C(=O)CON1C(=O)C2C3C=CC(C3)C2C1=O (stereo not drawn)   1000 M⁻¹ s⁻¹

Consider the additional compound presented here.
Fill in K obs / 1 for record CC(C)CC(NC(=O)OCc1ccccc1)C(=O)NC(Cc1ccccc1)C(=O)CON1C(=O)CCC1=O (stereo not drawn)
5800 M⁻¹ s⁻¹
